- TARGET OR TEST SYSTEM: T1, muPA-V213T (murine)
- T1 construct: site directed mutant of full length muPA; numbers count on: chymotrypsin numbering; Two-chain form after plasmin; source: HEK293 6E, transfected; treated with plasmin
- METHOD: enzyme inhibition (steady state, chromogenic substrate S-2444); about 2 nM enzyme (purified or conditioned medium of transfected cells) pre-incubated 15 min with varied peptide in HBS (10 mM HEPES pH 7.4, 140 mM NaCl) with 0.1% BSA at 37°C; substrate about KM; fit for competitive inhibition; highest peptide concentration 400 µM
Bridge positions count the residues as written; N and C are the ends. Square brackets hold non-standard residues; d marks the D form. Ends that are not written are not given here. Ala(1-amidino-4-piperidyl) = N=C(N)N1CCC(C[C@H](N)C(=O)O)CC1; Phe(4-guanidino) = N=C(N)Nc1ccc(C[C@H](N)C(=O)O)cc1
Below, each entry is listed with its recorded pKi.
API: returns pKi as number; meaning -log10 of concentration in mol/L.

Record excerpt, results attached:
INSERT INTO results (binder, experimental_value) VALUES
  ('CPAYS[Phe(4-guanidino)]YLDC (disulfide 1-10) [mupain-1-12]', 7.07),
  ('CPAYS[Ala(1-amidino-4-piperidyl)]YLAC (disulfide 1-10; not fully specified) [Mupain-1-16 D9A]', 7.85);

Query: Entry CPAYS[Ala(1-amidino-4-piperidyl)]YLDC (disulfide 1-10; not fully specified) [mupain-1-16] has what pKi?
Response: 7.89
